meta.source: patent US20100041597A1

Biological target: T1, PKC-ε (purified isoform) (Homo sapiens (Human), UniProt Q02156 1-737)
T1 construct: also called PKC-epsilon; PKCepsilon
T1 sequence: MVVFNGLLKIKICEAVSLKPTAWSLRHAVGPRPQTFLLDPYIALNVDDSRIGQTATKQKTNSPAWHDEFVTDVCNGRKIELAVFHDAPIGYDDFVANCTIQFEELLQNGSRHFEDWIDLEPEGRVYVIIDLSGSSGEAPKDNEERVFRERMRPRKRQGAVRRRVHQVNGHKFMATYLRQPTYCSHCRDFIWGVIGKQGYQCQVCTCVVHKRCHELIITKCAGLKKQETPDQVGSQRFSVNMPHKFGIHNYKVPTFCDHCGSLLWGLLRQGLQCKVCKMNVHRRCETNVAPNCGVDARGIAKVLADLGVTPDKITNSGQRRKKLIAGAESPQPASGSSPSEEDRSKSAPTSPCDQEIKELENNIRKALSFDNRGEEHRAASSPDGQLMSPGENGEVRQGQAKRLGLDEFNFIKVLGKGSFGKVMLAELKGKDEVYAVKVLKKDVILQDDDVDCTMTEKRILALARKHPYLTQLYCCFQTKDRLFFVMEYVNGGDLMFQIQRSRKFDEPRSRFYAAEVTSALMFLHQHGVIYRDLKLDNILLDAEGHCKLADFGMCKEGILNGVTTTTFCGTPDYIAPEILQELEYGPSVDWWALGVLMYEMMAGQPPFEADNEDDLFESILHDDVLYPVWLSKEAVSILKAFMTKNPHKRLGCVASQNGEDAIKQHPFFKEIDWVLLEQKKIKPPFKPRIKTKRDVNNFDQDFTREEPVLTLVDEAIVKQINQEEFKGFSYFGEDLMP
Experiment: competitive ELISA on purified PKC-ε vs anti-PKC-ε Ab; PRE 200 µM
Can you tell me binding capacity (%) for the items I'm about to list?
Number only, in %; omit the unit.

Input: For the binder Ac-ISIGILQNADK-NH2 (Synthetic peptide (retro form of PRE 4); also called peptide PRE 7) [PRE 7] , give its measured binding capacity (%) value.
Output: 3.78

Input: Consider the binder Ac-KDAQNLI-NH2 (Synthetic peptide; also called peptide PRE 12; Ac-KDAQNLI-NH2) [PRE 12] . State its measured binding capacity (%).
Output: 0

Input: Please indicate binding capacity (%) recorded for Ac-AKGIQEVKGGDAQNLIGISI-NH2 (Synthetic peptide; also called peptide PRE 3) [PRE 3]
Output: 31

Input: Indicate the recorded binding capacity (%) value for this binder: Ac-RDAQNLI-NH2 (Synthetic peptide; also called peptide PRE 13; Ac-RDAQNLI-NH2) [PRE 13]
Output: 0.85

Input: Return binding capacity (%) (reported value) for this binder: Ac-RDAQNLIGISI-NH2 (Synthetic peptide; also called peptide PRE 11) [PRE 11]
Output: 9.84
